System: MDA-MB-231
Procedure Text: Antiproliferative activity against human MDA-MB-231 cells assessed as cell viability by Alamar Blue assay
Assay type: functional, cell-based
Let's look at some molecules and their measured IC50.
Property Name: IC50 (µM)

# Given Smiles, Result Modifier, Reported
data = [
    ("CC(=O)N[C@H](C)[C@@H](O)[C@@H](C)[C@@H]1OC(=O)/C=C/C=C(C)\\C=C\\[C@]2(C)CCC=C[C@@H]2/C=C(C)/C=C/[C@H]1C", "=", 0.0428),
    ("CC(=O)N[C@H](C)[C@@H](O)[C@@H](C)[C@@H]1OC(=O)/C=C/C=C(C)\\C=C\\c2ccccc2/C=C(C)/C=C/[C@H]1C", ">", 5),
]
